molecular target: Human DR5 (Homo sapiens, UniProt O14763); experiment: Binding affinity of antibody to human DR5 (BIAcore, CM5 chip); conditions: equilibrium dissociation constant, Human DR5
MEASURE: Kd
Report as: number unit

Incoming: State its Kd: DA22: humanized or deimmunized variant of parental clone D0; CDRs SEQ ID NO 1, 2, 8 / 4, 10, 13 (antibody, V domains shown) VH: EVQLVESGGGLVQPGGSLRLSCAASGFTFSSFNMLWVRQAPGKGLEWVAGIGKSDRYTGYGSAVKGRFTISRDDSKSTVYLQMNSLRAEDTAVYYCVRDAGSPCGSGGWTGACIDTWGQGTLVTVSS VL: DIQMTQSPSSLSASVGDRVTITCSGGDSYAGSYYYGWYQQKPGKAPKTLIYNNNNRPSGVPSRFSGSTSGTDFTLTISSLQPEDFATYYCGSRDSSYVGIFGQGTKVEIK
Outgoing: 0.0342 nM
